Every entry's value here was drawn from paper PMC4336329.

Below, each entry is listed alongside its reported hERG current change (%, negative = inhibition) at 10uM.
biological target: human ether-à-go-go-related gene (hERG) potassium channel (human, UniProt Q12809); experiment: primary screen, population patch clamp on CHO cells stably expressing hERG; higher = less effect of the substance;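 further: peak tail current of the secondary pulse compared with the same well before compound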
Sequence (Q12809 whole entry, looked up): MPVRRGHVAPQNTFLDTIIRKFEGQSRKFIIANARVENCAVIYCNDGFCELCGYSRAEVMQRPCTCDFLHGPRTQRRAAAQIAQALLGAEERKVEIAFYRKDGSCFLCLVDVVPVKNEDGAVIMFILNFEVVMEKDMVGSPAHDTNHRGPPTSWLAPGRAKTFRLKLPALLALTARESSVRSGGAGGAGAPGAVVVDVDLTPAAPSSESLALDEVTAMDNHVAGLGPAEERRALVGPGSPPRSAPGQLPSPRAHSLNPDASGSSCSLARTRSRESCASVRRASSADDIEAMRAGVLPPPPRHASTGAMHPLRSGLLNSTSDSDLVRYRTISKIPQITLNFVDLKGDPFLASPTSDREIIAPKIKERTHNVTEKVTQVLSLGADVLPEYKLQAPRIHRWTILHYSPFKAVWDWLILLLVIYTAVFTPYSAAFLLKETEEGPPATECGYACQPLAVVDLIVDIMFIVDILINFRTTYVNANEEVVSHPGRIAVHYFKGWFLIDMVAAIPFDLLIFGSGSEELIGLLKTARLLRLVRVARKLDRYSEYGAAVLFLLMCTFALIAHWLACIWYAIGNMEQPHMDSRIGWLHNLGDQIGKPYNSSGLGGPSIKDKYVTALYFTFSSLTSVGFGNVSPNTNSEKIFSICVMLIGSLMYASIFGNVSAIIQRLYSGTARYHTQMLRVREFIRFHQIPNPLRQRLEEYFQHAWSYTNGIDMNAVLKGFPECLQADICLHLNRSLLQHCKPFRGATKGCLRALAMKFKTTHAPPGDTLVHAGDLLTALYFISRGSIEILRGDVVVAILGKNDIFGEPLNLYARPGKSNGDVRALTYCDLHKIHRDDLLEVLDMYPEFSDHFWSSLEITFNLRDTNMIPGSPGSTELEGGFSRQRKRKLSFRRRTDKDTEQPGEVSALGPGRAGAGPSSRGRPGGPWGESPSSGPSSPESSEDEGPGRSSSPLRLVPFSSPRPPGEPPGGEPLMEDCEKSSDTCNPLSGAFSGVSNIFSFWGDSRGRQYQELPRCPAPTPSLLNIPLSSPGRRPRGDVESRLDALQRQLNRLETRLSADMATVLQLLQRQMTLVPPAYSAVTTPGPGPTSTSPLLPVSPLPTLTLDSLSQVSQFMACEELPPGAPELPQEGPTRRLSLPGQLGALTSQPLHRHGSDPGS
The whole screen tested about 310,000 compounds, of which about 14,000 (4.5%) showed an effect of 50% or more. The effect is printed as a negative number. For the sample, strong results were picked, then their nearest neighbours and some compounds at random.
The answer is to be given in %; state only the numeric part.

These recorded examples may help you get a feel for the data.
N#CC1(NC(=O)CSc2nnc(-c3ccccc3F)o2)CCCCC1    -13.1
CCOc1ccc(C(=O)NCC(=O)Nc2ncccc2C)cc1OCC    18
CN(C)S(=O)(=O)c1cccc(NC(=O)Cn2cc(C(F)(F)F)cc(Cl)c2=O)c1    3.98
Fc1cccc(C2CC(c3cccc(Br)c3)Nc3nnnn32)c1 (stereo not shown)    -3.02
CCOc1ccc(C(CC(=O)O)NS(=O)(=O)c2ccc(C)cc2)cc1OC (stereo not shown)    10.3
Cc1ccc(NC(=O)COC(=O)CCc2ccc(S(=O)(=O)N3CCOCC3)cc2)cc1F    -11
C/C(=N/NS(=O)(=O)c1cc(C)ccc1C)c1ccncc1    11
O=C(OCc1cccnc1)C1=Cc2ccccc2OC1    -64.9

Q. Supply measured hERG current change (%, negative = inhibition) at 10uM of COc1ccc2c(c1)C=C(C(=O)OCc1cccnc1)CO2 in your reply.
A. 3.63

Q. Indicate its recorded hERG current change (%, negative = inhibition) at 10uM; the compound in question is COc1cccc2c1OCC(C(=O)OCc1cccnc1)=C2
A. -17.4

###

target: human ether-à-go-go-related gene (hERG) potassium channel (human); assay: primary screen, population patch clamp on CHO cells stably expressing hERG; higher = less effect of the substance;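 further: peak tail current of the secondary pulse compared with the same well before compound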
The campaign covered roughly 310,000 compounds. About 14,000 (4.5%) showed an effect of 50% or more. The effect is printed as a negative number. The full list was thinned out, with strong results kept by preference.
Reported values of hERG current change (%, negative = inhibition) at 10uM for individual entries
All answers are understood in %, so give the number only.

O=S(=O)(NCC(c1cccnc1)N1CCN(c2ccc(F)cc2)CC1)c1ccc(F)cc1 (stereo not drawn)    -69
O=C(CN1C(=O)NC(Cc2c[nH]c3ccccc23)C1=O)Nc1ccc(F)c(F)c1F (stereo not drawn)    -5.36
O=C(COC(=O)c1ccccc1F)Nc1cc(S(=O)(=O)N2CCOCC2)ccc1N1CCCC1    -13.5
Cc1ccc(S(=O)(=O)NC(C)(C)CSc2ncccn2)cc1    -4.42
Cc1c(Cl)cccc1NC(=S)/C(=C(\[O-])c1ccc(Cl)s1)[n+]1ccccc1    3.76

Q. State the measured hERG current change (%, negative = inhibition) at 10uM (human ether-à-go-go-related gene (hERG) potassium channel (human)) of CCSc1oc(-c2ccco2)nc1S(=O)(=O)c1ccccc1
A. -12.8

Q. Provide hERG current change (%, negative = inhibition) at 10uM, recorded with human ether-à-go-go-related gene (hERG) potassium channel (human), of CCc1ccc2[nH]c(=O)c(-c3ccccc3)c(O)c2c1
A. 17.5

Q. Provide hERG current change (%, negative = inhibition) at 10uM, system human ether-à-go-go-related gene (hERG) potassium channel (human), entry O=C(NCC(c1cccnc1)N1CCN(c2ccc(F)cc2)CC1)Oc1ccccc1 (stereo not drawn);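 further: peak tail current of the secondary pulse compared with the same well before compound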
A. -26.4

Q. Under human ether-à-go-go-related gene (hERG) potassium channel (human), report hERG current change (%, negative = inhibition) at 10uM for O=S(=O)(NCC(c1cccnc1)N1CCN(c2ccc(F)cc2)CC1)c1ccccc1 (stereo not drawn)
A. -53.2
